Tested on: Mus musculus
protocol details: Antinociceptive activity in Swiss mouse assessed as inhibition of acetic acid-induced writhing at 10 mg/kg, ip administered 30 mins before acetic acid challenge measured after 20 mins relative to control
Format: functional
particulars: route intraperitoneal
quantity kind: inhibition in vivo at 10 mg/kg (%)

>>> df
                              sample_smiles  measurement_target  experimental_value
0  CCc1ccc(NC2=C(Cl)C(=O)N(c3c(C)n(C)n(-c4ccccc4)c3=O)C2=O)cc1        Mus musculus                49.5
1  Cc1c(N2C(=O)C(Cl)=C(Nc3cccc(Cl)c3)C2=O)c(=O)n(-c2ccccc2)n1C        Mus musculus                38.9
2  Cc1cccc(NC2=C(Cl)C(=O)N(c3c(C)n(C)n(-c4ccccc4)c3=O)C2=O)c1        Mus musculus                49.7
3  Cc1c(N2C(=O)C(Cl)=C(Nc3cccc(C(=O)O)c3)C2=O)c(=O)n(-c2ccccc2)n1C        Mus musculus                33.9
4  Cc1cc(C)cc(NC2=C(Cl)C(=O)N(c3c(C)n(C)n(-c4ccccc4)c3=O)C2=O)c1        Mus musculus                68.4
5  Cc1c(N2C(=O)C(Cl)=C(Nc3ccc(F)cc3)C2=O)c(=O)n(-c2ccccc2)n1C        Mus musculus                93.2
6  Cc1ccc(NC2=C(Cl)C(=O)N(c3c(C)n(C)n(-c4ccccc4)c3=O)C2=O)cc1        Mus musculus                33.6
7  Cc1c(N2C(=O)C(Cl)=C(NCc3ccccc3)C2=O)c(=O)n(-c2ccccc2)n1C        Mus musculus                35.4
8                     CC(=O)Oc1ccccc1C(=O)O        Mus musculus                  35

Just for reference, ChEMBL document CHEMBL1275265 is where these values come from.
